Every entry's value here was drawn from PubChem BioAssay (NCATS).

system: Glutathione peroxidase 1 (Homo sapiens)
experimentalDetails: Primary qHTS Assay for Inhibitors of Recombinant Selenoprotein Glutathione Peroxidase 1 (GPX1) (AID 1845191); note: nearly all actives have a fitted effect of over 65% in size
testConditions: recombinant GPX1, GR-coupled NADPH fluorescence, 15 min; series mostly up to 27.7 µM
Protocol: Assay Provider: Elias S.J. Arner MD PhD. Department of Medical Biochemistry and Biophysics Karolinska Institutet, Solna, Stockholm, Sweden […] 5; Detection; Fluorescence; ViewLux microplate reader, excitation 340 nm and emission 450 nm. […] 7; Detection; Fluorescence; ViewLux microplate reader, excitation 340 nm and emission 450 nm. […] 5. Initial fluorescence readout (t=0) at 340/450 nm was measured using a ViewLux multimodal detector (PerkinElmer, Waltham, MA). […]
Inconclusive results are not listed. Activity calls are given as the source filed them. Calls come from the whole dose curve; as a rule, active = well fitted inhibition curve with a large enough effect; inconclusive = small, poorly fitted or top-dose-only effect; inactive = flat fitted curve, though single readings scatter.
Hi! Could you answer with just one of these? active, inactive

Which result was noted for this compound in the test: CCC(=O)OCC(=O)[C@@]1(OC(=O)CC)[C@@H](C)C[C@H]2[C@@H]3CCC4=CC(=O)C=C[C@]4(C)[C@@]3(F)[C@@H](O)C[C@@]21C
inactive

Which result was noted for this compound in the test: COc1cc(Nc2nc3ccccc3nc2NS(=O)(=O)c2cccc(NC(=O)c3ccc(C)c(OC)c3)c2)cc(OC)c1
inactive

Which result was noted for this compound in the test: C=C1CCC2C(C)(C)CC(O)CC2(C)C1CCC(C)CCOC(=O)CCC(=O)O (configuration not stated)
inactive

Which result was noted for this compound in the test: C=CC1(C)C=C2CC[C@H]3[C@@](C)(C(=O)O)CCC[C@]3(C)C2CC1 (some centres not stated)
inactive

Which result was noted for this compound in the test: Cn1cc(Nc2cnccc2C(=O)O)c2cccnc21
inactive
